Biological target: human cytochrome P450 family 11B1 (Cyp11B1), 11β-hydroxylase (Homo sapiens, UniProt P15538)
Construct: the full-length cDNAs for the proteins were subcloned into the multicloning site of pcDNA3.1 (zeo); expressed in transfected cells
Sequence (P15538 25-503): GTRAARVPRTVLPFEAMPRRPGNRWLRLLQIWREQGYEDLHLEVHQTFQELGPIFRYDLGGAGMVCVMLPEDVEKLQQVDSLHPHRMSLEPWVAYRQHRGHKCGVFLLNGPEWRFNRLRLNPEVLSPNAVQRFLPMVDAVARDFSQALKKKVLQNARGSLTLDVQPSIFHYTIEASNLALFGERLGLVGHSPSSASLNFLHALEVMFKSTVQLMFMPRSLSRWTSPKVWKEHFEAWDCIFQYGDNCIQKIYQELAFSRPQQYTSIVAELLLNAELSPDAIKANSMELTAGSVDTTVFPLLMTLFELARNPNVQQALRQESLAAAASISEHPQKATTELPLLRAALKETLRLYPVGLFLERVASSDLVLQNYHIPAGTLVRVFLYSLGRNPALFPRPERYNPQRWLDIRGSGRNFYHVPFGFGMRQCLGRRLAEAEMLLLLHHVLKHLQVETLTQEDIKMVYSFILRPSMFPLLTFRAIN
Experiment: Cyp11B1 (11β-hydroxylase) inhibition in stably transfected Y1-Cyp11B1 cells, substrate 11-deoxycortisol (RSS)
Type: cell-based
Excerpt: Plasmid constructs and transfection: To induce expression of human cytochrome P450 family 11B1 (Cyp11B1) and Cyp11B2 enzymes in Y1 cells, the full-length cDNAs for the proteins were subcloned into the multicloning site of pcDNA3.1 (zeo) (Invitrogen, Eggenstein, Germany). The cDNA fragments were isolated by PCR and digested by EcoRI. The individual fragments were ligated into the linearized vectors digested by EcoRI. […]
Known IC50 of a selection of molecules
Quick reminder: number only, in nM, skip the unit.

Please review the following examples before continuing.
>  <molecule>
COC(=O)c1cncn1[C@H](C)c1ccc(I)cc1 [iodometomidate (IMTO), 4-Iodometomidate, reference compound]

>  <IC50 / nM>
2.6

$$$$
>  <molecule>
C[C@H](c1ccc(I)cc1)n1cncc1C(=O)NCCO

>  <IC50 / nM>
336

$$$$

### Prompt For C[C@H](c1ccc(I)cc1)n1cncc1C(=O)N1CCC1 , what is its reported IC50?
### Response 3.16

### Prompt For CCN(C)C(=O)c1cncn1[C@H](C)c1ccc(I)cc1 , what is its reported IC50?
### Response 3.9

----------
Known IC50 of a selection of molecules
molecular target: human Cyp11B2, aldosterone synthase (Homo sapiens, UniProt P19099); construct: the full-length cDNAs for the proteins were subcloned into the multicloning site of pcDNA3.1 (zeo); expressed in transfected cells; experiment: Cyp11B2 (aldosterone synthase) inhibition in stably transfected Y1-Cyp11B2 cells, substrate 11-deoxycorticosterone (DOC); format: cell-based
Sequence (P19099 25-503): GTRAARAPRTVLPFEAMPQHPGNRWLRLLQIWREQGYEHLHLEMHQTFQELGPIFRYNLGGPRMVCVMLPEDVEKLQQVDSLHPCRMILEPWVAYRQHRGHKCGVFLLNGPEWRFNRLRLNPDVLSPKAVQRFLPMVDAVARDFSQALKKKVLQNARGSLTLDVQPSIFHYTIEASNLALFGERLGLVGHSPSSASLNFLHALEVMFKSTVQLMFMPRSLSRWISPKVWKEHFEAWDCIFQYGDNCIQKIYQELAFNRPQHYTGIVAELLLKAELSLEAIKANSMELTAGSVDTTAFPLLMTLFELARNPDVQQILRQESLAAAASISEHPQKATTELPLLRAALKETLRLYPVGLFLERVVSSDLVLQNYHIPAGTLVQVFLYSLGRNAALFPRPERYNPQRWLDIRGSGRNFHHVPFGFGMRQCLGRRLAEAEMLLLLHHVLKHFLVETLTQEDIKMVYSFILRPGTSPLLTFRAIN
Quick reminder: number only, in nM, skip the unit.

Please review the following examples before continuing.
>  <molecule>
C[C@H](c1ccc(I)cc1)n1cncc1C(=O)N(C)C [2i]

>  <IC50 [nM]>
15.7

$$$$
>  <molecule>
COC(=O)c1cncn1[C@H](C)c1ccc(I)cc1 [iodometomidate (IMTO), 4-Iodometomidate, reference compound]

>  <IC50 [nM]>
2

$$$$
>  <molecule>
CC(C)N(C)C(=O)c1cncn1[C@H](C)c1ccc(I)cc1 [2m]

>  <IC50 [nM]>
147

$$$$
>  <molecule>
C[C@H](c1ccc(I)cc1)n1cncc1C(=O)NCCO [2k]

>  <IC50 [nM]>
221

$$$$
>  <molecule>
C[C@H](c1ccc(I)cc1)n1cncc1C(=O)N1CCC1 [2e]

>  <IC50 [nM]>
1.22

$$$$

### Prompt For C[C@H](c1ccc(I)cc1)n1cncc1C(N)=O [2j] , what is its reported IC50?
### Response 1410

### Prompt For CCCN(CC)C(=O)c1cncn1[C@H](C)c1ccc(I)cc1 [2n] , what is its reported IC50?
### Response 390

### Prompt For CCN(C)C(=O)c1cncn1[C@H](C)c1ccc(I)cc1 [2a] , what is its reported IC50?
### Response 4.2

### Prompt For CCCN(C)C(=O)c1cncn1[C@H](C)c1ccc(I)cc1 [2l] , what is its reported IC50?
### Response 3.5

### Prompt For CCN(CC)C(=O)c1cncn1[C@H](C)c1ccc(I)cc1 [2b] , what is its reported IC50?
### Response 10.9

----------
target: human cytochrome P450 family 11B1 (Cyp11B1), 11β-hydroxylase (Homo sapiens); construct: the full-length cDNAs for the proteins were subcloned into the multicloning site of pcDNA3.1 (zeo); expressed in transfected cells; assay: Cyp11B1 (11β-hydroxylase) inhibition in stably transfected Y1-Cyp11B1 cells, substrate 11-deoxycortisol (RSS); assay type: cell-based; settings: Y1-Cyp11B1 cells, 1 μM RSS, 48 h incubation; read-out: IC50 11β-hydroxylase
Known IC50 of a selection of molecules

Please review the following examples before continuing.
>  <smiles>
C[C@H](c1ccc(I)cc1)n1cncc1C(=O)N1CCCCC1

>  <experimental-system>
human cytochrome P450 family 11B1 (Cyp11B1), 11β-hydroxylase (Homo sapiens)

>  <IC50>
11.7 nM

$$$$
>  <smiles>
Cc1nnc(-c2cncn2[C@H](C)c2ccc(I)cc2)o1

>  <experimental-system>
human cytochrome P450 family 11B1 (Cyp11B1), 11β-hydroxylase (Homo sapiens)

>  <IC50>
10.6 nM

$$$$

Shift focus to the following entry.
### Prompt For C[C@H](c1ccc(I)cc1)n1cncc1C(=O)N1CCOCC1 , what is its reported IC50?
### Response 805 nM

----------
target: human cytochrome P450 family 11B1 (Cyp11B1), 11β-hydroxylase (Homo sapiens, UniProt P15538); construct: the full-length cDNAs for the proteins were subcloned into the multicloning site of pcDNA3.1 (zeo); expressed in transfected cells; experiment: Cyp11B1 (11β-hydroxylase) inhibition in stably transfected Y1-Cyp11B1 cells, substrate 11-deoxycortisol (RSS); type: cell-based
Known log10 of IC50 of a selection of molecules
Each number you see is log10 of IC50, and the unit inside the log is nM.

Please review the following examples before continuing.
>  <molecule>
C[C@H](c1ccc(I)cc1)n1cncc1C(N)=O [2j]

>  <reading>
2.52

$$$$
>  <molecule>
CCCN(C)C(=O)c1cncn1[C@H](C)c1ccc(I)cc1 [2l]

>  <reading>
1.87

$$$$
>  <molecule>
CCCN(CC)C(=O)c1cncn1[C@H](C)c1ccc(I)cc1 [2n]

>  <reading>
3.12

$$$$
>  <molecule>
CC(C)N(C)C(=O)c1cncn1[C@H](C)c1ccc(I)cc1 [2m]

>  <reading>
1.89

$$$$

### Prompt For CCN(CC)C(=O)c1cncn1[C@H](C)c1ccc(I)cc1 [2b] , what is its reported log10 of IC50?
### Response 1.56

Each recorded value in this set is attributed to patent US9814789B2.
